# TARGET SYSTEM: HSA (Homo sapiens, UniProt P02768)
# Sequence (P02768 25-609): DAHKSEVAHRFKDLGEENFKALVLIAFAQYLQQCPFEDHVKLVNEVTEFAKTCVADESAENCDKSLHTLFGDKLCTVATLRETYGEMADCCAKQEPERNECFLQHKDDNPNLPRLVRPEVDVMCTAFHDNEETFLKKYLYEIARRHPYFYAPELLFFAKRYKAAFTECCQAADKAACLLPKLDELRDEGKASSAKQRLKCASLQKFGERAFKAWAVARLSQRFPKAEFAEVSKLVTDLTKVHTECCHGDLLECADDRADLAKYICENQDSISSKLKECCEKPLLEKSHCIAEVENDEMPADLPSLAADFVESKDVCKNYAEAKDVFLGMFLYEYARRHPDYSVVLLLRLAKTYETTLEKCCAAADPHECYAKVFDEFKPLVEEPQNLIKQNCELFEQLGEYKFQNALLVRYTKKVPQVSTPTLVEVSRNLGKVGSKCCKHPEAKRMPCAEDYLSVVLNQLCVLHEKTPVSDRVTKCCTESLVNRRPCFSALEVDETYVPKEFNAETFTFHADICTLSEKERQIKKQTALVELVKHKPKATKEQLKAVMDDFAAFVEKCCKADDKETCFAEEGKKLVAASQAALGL
# ASSAY: HSA binding by equilibrium dialysis or ultrafiltration, 4.5% weight/volume HSA, pH 7.4 buffer
# STUDY CONDITIONS: human, 4.5% weight/volume human serum albumin (HSA) solution
ATTRIBUTE MEASURED: fraction unbound

COMPOUND	ENDPOINT VALUE
O=C(O)CN(CCN(CC(=O)O)CC(COP(=O)(O)OCCCCCCCCCCc1ccccc1)N(CC(=O)O)CC(=O)O)CC(=O)O (stereo not shown)	< 0.05
